Experiment: Lipophilicity, SlogP of the compound
Type: physicochemical
Details: octanol/water
RECORDED METRIC: logP

Examples with answers:
CN(C)c1ccc(C(=O)OCC2(CO)C/C(=C\c3cn(C)c4ccccc34)C(=O)O2)cc1 (stereo not given); 3.22
COc1ccc(C(=O)OCC2(CO)C/C(=C\c3cn(C)c4ccccc34)C(=O)O2)cc1 (stereo not given); 3.46
CCCC(CCC)C(=O)OCC1(CO)C/C(=C/c2ccccn2)C(=O)O1 (stereo not given); 2.9

P: CCCC(CCC)C(=O)OCC1(CO)C/C(=C/c2ccc3ccccc3n2)C(=O)O1 (stereo not given)
Q: CN(C)c1ccc(C(=O)OCC2(CO)C/C(=C/c3ccncc3)C(=O)O2)cc1 (stereo not given)
Request: Lower logP: P or Q ? Indicate your choice by writing its label.
Result: Q
(Q: 2.07, P: 4.06)

1: CN(C)c1ccc(C(=O)OCC2(CO)C/C(=C/c3ccc4ccccc4n3)C(=O)O2)cc1 (stereo not given)
2: CC(C)CC(CC(=O)OCC1(CO)C/C(=C\c2cn(C)c3ccccc23)C(=O)O1)CC(C)C (stereo not given)
3: COc1ccc(C(=O)OCC2(CO)C/C(=C\c3ccncc3)C(=O)O2)cc1 (stereo not given)
Request: Sort (3 compounds) by logP: min first. Record the ranking as a list of labels in the requested order.
Result: 3, 1, 2
(3: 2.01, 1: 3.22, 2: 5.24)

###

Biological target: Protein kinase C alpha type (Homo sapiens, UniProt P17252)
Experiment: Displacement of [3H]PDBu from human recombinant PKCalpha expressed in Escherichia coli […] (DE3)
RECORDED METRIC: Ki (nM)

CCCC(CCC)C(=O)OCC1(CO)C/C(=C/c2ccc3ccccc3n2)C(=O)O1 (stereo not given); 78.8
COc1ccc(C(=O)OCC2(CO)C/C(=C\c3ccncc3)C(=O)O2)cc1 (stereo not given); 1450
COc1ccc(C(=O)OCC2(CO)C/C(=C\c3ccc4ccccc4n3)C(=O)O2)cc1 (stereo not given); 132
CN(C)c1ccc(C(=O)OCC2(CO)C/C(=C/c3ccncc3)C(=O)O2)cc1 (stereo not given); 33200
COc1ccc(C(=O)OCC2(CO)C/C(=C/c3cccnc3)C(=O)O2)cc1 (stereo not given); 21200
CCCC(CCC)C(=O)OCC1(CO)C/C(=C/c2ccccn2)C(=O)O1 (stereo not given); 1370

I: CN(C)c1ccc(C(=O)OCC2(CO)C/C(=C\c3cccnc3)C(=O)O2)cc1 (stereo not given)
II: CCCC(CCC)C(=O)OCC1(CO)C/C(=C\c2ccc3ccccc3n2)C(=O)O1 (stereo not given)
Request: Which gives the smaller Ki number: I or II ? Refer to your chosen entry by its label in the reply.
Result: II

a: COc1ccc(C(=O)OCC2(CO)C/C(=C\c3ccc([N+](=O)[O-])cc3)C(=O)O2)cc1 (stereo not given)
b: CCCC(CCC)C(=O)OCC1(CO)C/C(=C\c2cn(C)c3ccccc23)C(=O)O1 (stereo not given)
c: CN(C)c1ccc(C(=O)OCC2(CO)C/C(=C\c3cnc4ccccc4c3)C(=O)O2)cc1 (stereo not given)
d: CCCC(CCC)C(=O)OCC1(CO)C/C(=C/c2cccnc2)C(=O)O1 (stereo not given)
Request: Exam item: list the entries in increasing order of Ki. Thanks in advance for listing the labels in the requested order.
Result: b, a, c, d
(b: 29.7 nM, a: 136 nM, c: 755 nM, d: 3270 nM)

a: CN(C)c1ccc(C(=O)OCC2(CO)C/C(=C\c3cn(C)c4ccccc34)C(=O)O2)cc1 (stereo not given)
b: CN(C)c1ccc(C(=O)OCC2(CO)C/C(=C\c3ccc([N+](=O)[O-])cc3)C(=O)O2)cc1 (stereo not given)
Request: When their Ki values are compared, which is larger, a or b ? # answer = label of selected item
Result: b

###

Test: Ratio of Ki for human recombinant PKCalpha to RasGRP3
RECORDED METRIC: Ratio Ki

COc1ccc(C(=O)OCC2(CO)C/C(=C/c3ccccn3)C(=O)O2)cc1 (centres undefined); 11
COc1ccc(C(=O)OCC2(CO)C/C(=C\c3cn(C)c4ccccc34)C(=O)O2)cc1 (centres undefined); 64
CCCC(CCC)C(=O)OCC1(CO)C/C(=C\c2cccnc2)C(=O)O1 (centres undefined); 47

I: CCCC(CCC)C(=O)OCC1(CO)C/C(=C/c2cccnc2)C(=O)O1 (centres undefined)
II: COc1ccc(C(=O)OCC2(CO)C/C(=C\c3cnc4ccccc4c3)C(=O)O2)cc1 (centres undefined)
III: CN(C)c1ccc(C(=O)OCC2(CO)C/C(=C/c3cnc4ccccc4c3)C(=O)O2)cc1 (centres undefined)
IV: CN(C)c1ccc(C(=O)OCC2(CO)C/C(=C/c3ccncc3)C(=O)O2)cc1 (centres undefined)
V: CCCC(CCC)C(=O)OCC1(CO)C/C(=C\c2cnc3ccccc3c2)C(=O)O1 (centres undefined)
Request: Reorder: Ratio Ki, max to min. Answer format: the labels, in the requested order.
Result: V, IV, II, I, III
(V: 27, IV: 14, II: 8, I: 5, III: 3)

###

Assay: Lipophilicity, SlogP of the compound
Type: physicochemical
Conditions: octanol/water
RECORDED METRIC: logP

CCCC(CCC)C(=O)OCC1(CO)C/C(=C\c2cn(C)c3ccccc23)C(=O)O1 (centres undefined); 4.36
CN(C)c1ccc(C(=O)OCC2(CO)C/C(=C\c3ccc4ccccc4n3)C(=O)O2)cc1 (centres undefined); 3.22
CCCC(CCC)C(=O)OCC1(CO)C/C(=C\c2ccccn2)C(=O)O1 (centres undefined); 2.9
CCCC(CCC)C(=O)OCC1(CO)C/C(=C/c2cnc3ccccc3c2)C(=O)O1 (centres undefined); 4.06

###

Biological target: Ras guanyl-releasing protein 3 (Homo sapiens)
Experiment: Displacement of [3H]PDBu from RasGRP3 expressed in cells
pKi: −log10 of the molar value.
RECORDED METRIC: pKi

CN(C)c1ccc(C(=O)OCC2(CO)C/C(=C/c3cnc4ccccc4c3)C(=O)O2)cc1 (stereo not given); 5.85

1: CN(C)c1ccc(C(=O)OCC2(CO)C/C(=C\c3cn(C)c4ccccc34)C(=O)O2)cc1 (stereo not given)
2: CCCC(CCC)C(=O)OCC1(CO)C/C(=C\c2cccnc2)C(=O)O1 (stereo not given)
Request: # query: argmin of pKi over 1 and 2 Response format: the label of the selected entry.
Result: 1

P: CCCC(CCC)C(=O)OCC1(CO)C/C(=C/c2ccc3ccccc3n2)C(=O)O1 (stereo not given)
Q: CC(C)CC(CC(=O)OCC1(CO)C/C(=C\c2cn(C)c3ccccc23)C(=O)O1)CC(C)C (stereo not given)
R: COc1ccc(C(=O)OCC2(CO)C/C(=C\c3cnc4ccccc4c3)C(=O)O2)cc1 (stereo not given)
S: COc1ccc(C(=O)OCC2(CO)C/C(=C\c3ccc4ccccc4n3)C(=O)O2)cc1 (stereo not given)
Request: Ascending sort, pKi. Your answer should be the labels, listed in the requested order.
Result: R, S, P, Q

P: CCCC(CCC)C(=O)OCC1(CO)C/C(=C/c2ccncc2)C(=O)O1 (stereo not given)
Q: COc1ccc(C(=O)OCC2(CO)C/C(=C\c3ccc([N+](=O)[O-])cc3)C(=O)O2)cc1 (stereo not given)
R: CCCC(CCC)C(=O)OCC1(CO)C/C(=C/c2cccnc2)C(=O)O1 (stereo not given)
Request: # ascending order, key=pKi # the answer lists labels in the order requested
Result: R, P, Q

###

Assay: Ratio of Ki for human recombinant PKCalpha to RasGRP3
RECORDED METRIC: Ratio Ki

Known results for compounds:
CCCC(CCC)C(=O)OCC1(CO)C/C(=C\c2ccccn2)C(=O)O1 (stereo not given); 119
COc1ccc(C(=O)OCC2(CO)C/C(=C\c3ccncc3)C(=O)O2)cc1 (stereo not given); 27
COc1ccc(C(=O)OCC2(CO)C/C(=C\c3ccc([N+](=O)[O-])cc3)C(=O)O2)cc1 (stereo not given); 20

a: CCCC(CCC)C(=O)OCC1(CO)C/C(=C/c2ccncc2)C(=O)O1 (stereo not given)
b: COc1ccc(C(=O)OCC2(CO)C/C(=C/c3ccncc3)C(=O)O2)cc1 (stereo not given)
Request: For the pair a and b , which entry has the numerically smaller recorded Ratio Ki? Please respond with the label that marks your chosen entry.
Result: b

###

Target: Ras guanyl-releasing protein 3 (Homo sapiens, UniProt Q8IV61)
Sequence (Q8IV61 whole entry): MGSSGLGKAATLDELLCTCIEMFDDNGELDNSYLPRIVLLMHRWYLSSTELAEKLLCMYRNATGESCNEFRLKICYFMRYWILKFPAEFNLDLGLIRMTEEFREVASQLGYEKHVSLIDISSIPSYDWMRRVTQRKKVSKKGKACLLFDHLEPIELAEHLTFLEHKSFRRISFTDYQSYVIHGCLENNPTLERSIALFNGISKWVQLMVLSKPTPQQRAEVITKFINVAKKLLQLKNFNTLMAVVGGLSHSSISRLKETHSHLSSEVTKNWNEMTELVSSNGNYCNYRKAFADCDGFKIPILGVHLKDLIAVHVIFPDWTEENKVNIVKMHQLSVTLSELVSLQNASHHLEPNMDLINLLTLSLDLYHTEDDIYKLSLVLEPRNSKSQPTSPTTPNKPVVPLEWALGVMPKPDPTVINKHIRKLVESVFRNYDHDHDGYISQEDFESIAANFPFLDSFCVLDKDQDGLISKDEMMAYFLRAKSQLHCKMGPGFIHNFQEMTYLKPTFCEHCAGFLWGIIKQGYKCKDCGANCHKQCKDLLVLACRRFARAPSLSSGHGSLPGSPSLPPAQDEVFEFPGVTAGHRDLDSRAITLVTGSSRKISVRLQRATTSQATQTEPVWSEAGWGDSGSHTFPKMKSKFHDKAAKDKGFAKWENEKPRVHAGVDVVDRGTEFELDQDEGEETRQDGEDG
Assay: Displacement of [3H]PDBu from RasGRP3 expressed in cells
RECORDED METRIC: Ki (nM)

# annotated cases, reported Ki shown
CN(C)c1ccc(C(=O)OCC2(CO)C/C(=C\c3ccc4ccccc4n3)C(=O)O2)cc1 (stereo not given); 11
COc1ccc(C(=O)OCC2(CO)C/C(=C/c3cccnc3)C(=O)O2)cc1 (stereo not given); 5500
CN(C)c1ccc(C(=O)OCC2(CO)C/C(=C\c3cccnc3)C(=O)O2)cc1 (stereo not given); 59
CCCC(CCC)C(=O)OCC1(CO)C/C(=C\c2ccncc2)C(=O)O1 (stereo not given); 13.8

P: CN(C)c1ccc(C(=O)OCC2(CO)C/C(=C/c3cccnc3)C(=O)O2)cc1 (stereo not given)
Q: CCCC(CCC)C(=O)OCC1(CO)C/C(=C\c2cn(C)c3ccccc23)C(=O)O1 (stereo not given)
Request: Which one would you say has the larger Ki value: P , or Q ? When you have decided, please share the label of that item.
Result: P

I: COc1ccc(C(=O)OCC2(CO)C/C(=C/c3ccccn3)C(=O)O2)cc1 (stereo not given)
II: COc1ccc(C(=O)OCC2(CO)C/C(=C\c3ccccn3)C(=O)O2)cc1 (stereo not given)
III: CN(C)c1ccc(C(=O)OCC2(CO)C/C(=C\c3cnc4ccccc4c3)C(=O)O2)cc1 (stereo not given)
IV: COc1ccc(C(=O)OCC2(CO)C/C(=C\c3cn(C)c4ccccc34)C(=O)O2)cc1 (stereo not given)
Request: Please list these in order of increasing Ki. Thank you! Respond with an ordered listing of the labels, as requested.
Result: IV, II, III, I
